assay: Peptide stability in mouse plasma (UPLC); assay type: in vitro ADME; settings: mouse, plasma
endpoint.name: half-life (min)

entry_smiles=COC(=O)[C@H](CC(C)C)NC(=O)[C@H](Cc1ccccc1)NC(=O)CNC(=O)CNC(=O)[C@H](Cc1ccc(O)cc1)NC(=O)C(C)(C)C endpoint_name=half-life value=2.5

====

assay: Peptide stability in mouse plasma (UPLC); format: in vitro ADME; settings: CD-1 mouse plasma, 37 °C, 1 h; esters recovered as the corresponding acid
Decision: Recovered Peptide after 1 h in Mouse Plasma [%] compared against 80%; not below it gives true, below it gives false.

entry_smiles=COC(=O)[C@H](CC(C)C)NC(=O)[C@H](Cc1ccccc1)NC(=O)CNC(=O)CNC(=O)[C@H](Cc1ccc(O)cc1)NC(=O)C1CCCCC1 label_class=false
entry_smiles=CCCCCCCC(=O)N[C@@H](Cc1ccc(O)cc1)C(=O)NCC(=O)NCC(=O)N[C@@H](Cc1ccccc1)C(=O)N[C@@H](CC(C)C)C(=O)OC label_class=false
entry_smiles=CC(C)C[C@H](NC(=O)[C@H](Cc1ccccc1)NC(=O)CNC(=O)CNC(=O)[C@H](Cc1ccc(O)cc1)NC(=O)C(C)(C)C)C(=O)O label_class=true
entry_smiles=COC(=O)[C@H](CC(C)C)NC(=O)[C@H](Cc1ccccc1)NC(=O)CNC(=O)CNC(=O)[C@H](Cc1ccc(O)cc1)NC(=O)Cc1ccccc1 label_class=true
entry_smiles=CCCCCC(=O)N[C@@H](Cc1ccc(O)cc1)C(=O)NCC(=O)NCC(=O)N[C@@H](Cc1ccccc1)C(=O)N[C@@H](CC(C)C)C(=O)OC label_class=true

The reported numbers originate from paper PMC8308721.
